Listed below: IC50 values for each entry.
- System: human plasma kallikrein (Homo sapiens (Human))
- Sequence (P03952 391-638): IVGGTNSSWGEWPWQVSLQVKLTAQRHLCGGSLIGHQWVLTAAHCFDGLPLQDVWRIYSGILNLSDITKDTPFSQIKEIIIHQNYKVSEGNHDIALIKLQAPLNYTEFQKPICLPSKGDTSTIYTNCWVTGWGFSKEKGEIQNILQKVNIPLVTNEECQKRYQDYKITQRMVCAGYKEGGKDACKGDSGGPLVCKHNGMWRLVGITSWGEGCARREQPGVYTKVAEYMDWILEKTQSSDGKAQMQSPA
- Sequence (P03952 20-390 partner): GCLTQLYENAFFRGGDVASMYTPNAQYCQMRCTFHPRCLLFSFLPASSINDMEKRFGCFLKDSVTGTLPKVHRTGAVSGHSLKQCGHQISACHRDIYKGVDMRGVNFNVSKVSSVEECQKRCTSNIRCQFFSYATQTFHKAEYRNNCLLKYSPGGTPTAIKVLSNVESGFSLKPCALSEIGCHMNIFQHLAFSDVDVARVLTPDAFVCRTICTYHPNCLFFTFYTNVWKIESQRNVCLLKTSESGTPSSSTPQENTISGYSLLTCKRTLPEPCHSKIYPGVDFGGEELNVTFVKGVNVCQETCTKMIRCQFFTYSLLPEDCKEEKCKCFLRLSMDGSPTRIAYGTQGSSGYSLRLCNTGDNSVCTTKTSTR
- Protocol Notes: Kallikrein inhibition assay (FLINT) utilizing a quenched AMC peptide substrate
- Format: biochemical
- Condition: 30 min preincubation, kinetic reads over 30 min, Z-Gly-Pro-Arg-AMC substrate 50 μM; read-out: Kallikrein Kin Inh IC50

{"Molecule": "O=C1C=C(c2c(-n3cnnn3)ccc(Cl)c2F)CC2CC[C@@H](c3ncc(-c4ccc5[nH]c(=O)ccc5c4)[nH]3)N12 (stereo partly drawn)", "IC50 (nM)": 0.7}
{"Molecule": "[2H]c1cc(N)nc(F)c1-c1[nH]c([C@@H]2CC[C@@H]3CC(c4c(-n5cnnn5)ccc(Cl)c4F)=CC(=O)N32)nc1[2H]", "IC50 (nM)": 8.6}
{"Molecule": "C[C@H]1C[C@@H](c2ncc(-c3ccc(N)nc3F)[nH]2)N2C(=O)C=C(c3c(-n4cnnn4)ccc(Cl)c3F)C[C@@H]12 (single isomer, unassigned)", "IC50 (nM)": 8.2}
{"Molecule": "O=C(O)c1ccc(-c2c[nH]c(C3CCC4CC(c5cc(Cl)ccc5-n5cc(C(F)(F)F)nn5)=CC(=O)N43)n2)s1 (stereo not drawn)", "IC50 (nM)": 39.6}
{"Molecule": "C[C@@H](O)c1nccc(-c2cnc([C@@H]3CC[C@@H]4CC(c5c(-n6cnnn6)ccc(Cl)c5F)=CC(=O)N43)[nH]2)c1F", "IC50 (nM)": 33.9}
{"Molecule": "COc1ccc(-c2c[nH]c([C@@H]3CC[C@@H]4CC(c5c(-n6cnnn6)ccc(Cl)c5F)=CC(=O)N43)n2)c(NC(=O)C2CC2)c1", "IC50 (nM)": 1.1}
{"Molecule": "CC(=O)Nc1cnc(C(F)(F)F)cc1-c1cnc([C@@H]2CC[C@H]3CC(c4c(-n5cnnn5)ccc(Cl)c4F)=CC(=O)N32)[nH]1", "IC50 (nM)": 730}
{"Molecule": "O=C1C=C(c2c(-n3cnnn3)ccc(Cl)c2F)C[C@H]2CC[C@@H](c3ncc(-c4ccnc(-n5cccn5)c4)[nH]3)N12", "IC50 (nM)": 3.1}
{"Molecule": "[2H]c1cc(Cl)c(F)c(C2=CC(=O)N3[C@H](CC[C@H]3c3nc([2H])c(-c4ccc(N)nc4F)[nH]3)C2)c1-n1cnnn1", "IC50 (nM)": 5.4}
{"Molecule": "NC(=O)c1cc(-c2cnc([C@@H]3CC[C@H]4CC(c5c(-n6cnnn6)ccc(Cl)c5F)=CC(=O)N43)[nH]2)ccc1F", "IC50 (nM)": 17.8}
{"Molecule": "CC(C)[C@H](N)C(=O)OCc1nccc(-c2cnc([C@@H]3CC[C@@H]4CC(c5c(-n6cnnn6)ccc(Cl)c5F)=CC(=O)N43)[nH]2)c1F", "IC50 (nM)": 38.3}
{"Molecule": "O=C1CCc2cc(-c3cnc([C@@H]4CC[C@H]5CC(c6c(-n7cnnn7)ccc(Cl)c6F)=CC(=O)N54)[nH]3)ccc2N1 (relative stereo)", "IC50 (nM)": 1.2}
{"Molecule": "O=C1C=C(c2c(-n3cnnn3)ccc(Cl)c2F)C[C@H]2CC[C@H](c3ncc(-c4ccnc(C5(O)CC5)c4F)[nH]3)N12 (single isomer, unassigned) [Example 116]", "IC50 (nM)": 64.4}
{"Molecule": "O=C1C=C(c2c(-n3cnnn3)ccc(Cl)c2F)C[C@H]2CCC(c3ncc(-c4n[nH]cc4Cl)[nH]3)N12 (stereo partly drawn)", "IC50 (nM)": 867}
{"Molecule": "N#CCc1nccc(-c2c[nH]c([C@@H]3CC[C@@H]4CC(c5c(-n6cnnn6)ccc(Cl)c5F)=CC(=O)N43)n2)c1F", "IC50 (nM)": 28.5}
{"Molecule": "O=C1C=C(c2c(-n3cnnn3)ccc(Cl)c2F)C[C@H]2CC[C@@H](c3nc(-c4cnc5[nH]ncc5c4)c[nH]3)N12", "IC50 (nM)": 54.2}
{"Molecule": "O=C1C=C(c2cc(Cl)ccc2-n2cnnn2)C[C@H]2CC[C@@H](c3ncc(-c4ccc(NC56CC(C5)C6)nc4F)[nH]3)N12", "IC50 (nM)": 57.5}
{"Molecule": "O=C1C=C(c2c(-n3cnnn3)ccc(Cl)c2F)C[C@H]2CC[C@@H](c3ncc(-c4ccnc5c4OCCO5)[nH]3)N12", "IC50 (nM)": 6.1}
{"Molecule": "O=C(O)c1ccc(-c2cnc([C@@H]3CCC4CC(c5c(-n6cnnn6)ccc(Cl)c5F)=CC(=O)N43)[nH]2)cc1F (stereo partly drawn)", "IC50 (nM)": 405}
{"Molecule": "CCN(CCO)c1nccc(-c2cnc([C@@H]3CC[C@@H]4CC(c5c(-n6cnnn6)ccc(Cl)c5F)=CC(=O)N43)[nH]2)c1F (single isomer, unassigned)", "IC50 (nM)": 6.3}
{"Molecule": "C[C@H](O)c1nccc(-c2cnc([C@@H]3CC[C@@H]4CC(c5c(-n6cnnn6)ccc(Cl)c5F)=CC(=O)N43)[nH]2)c1F", "IC50 (nM)": 35.1}
{"Molecule": "O=C1C=C(c2c(-n3cnnn3)ccc(Cl)c2F)CC2CC[C@@H](c3ncc(-c4ccc5[nH]c(=O)oc5c4)[nH]3)N12 (stereo partly drawn)", "IC50 (nM)": 1.3}
{"Molecule": "Nc1ccc(-c2cnc([C@@H]3CC[C@@H]4CC(c5c(-n6cnnn6)ccc(Cl)c5F)=CC(=O)N43)[nH]2)c(C(F)(F)F)n1", "IC50 (nM)": 372}
{"Molecule": "N#CC1CN(c2nccc(-c3cnc([C@@H]4CC[C@@H]5CC(c6c(-n7cnnn7)ccc(Cl)c6F)=CC(=O)N54)[nH]3)c2F)C1 (single isomer, unassigned)", "IC50 (nM)": 5.1}
